Cited source: paper PMC2920546

# experiment: Pharmacokinetics and tissue distribution in nude mice
# Assay type: in vivo
# testConditions: female, nude (nu/nu), mouse, brain, IP 10 mg/kg
propertyName: Cmax (ng/mL)
The reply should be a number in ng/mL, with the unit left off.

Quote Cmax reported for O=C1C(NCc2ccccc2)=CC2=NCCc3c[nH]c1c32 [BA-TPQ] please.
90

====

# experiment: Pharmacokinetics and tissue distribution in CD-1 mice
# Assay type: in vivo
# testConditions: female, mouse, liver, IP 10 mg/kg
propertyName: half-life

Quote half-life reported for O=C1C(NCc2ccccc2)=CC2=NCCc3c[nH]c1c32 please.
14.4 min

====

# experiment: Pharmacokinetics and tissue distribution in nude mice
# Format: in vivo
# testConditions: female, nude (nu/nu), mouse, liver, IV 5 mg/kg
propertyName: clearance
Number first, unit second.

Quote clearance reported for O=C1C(NCc2ccccc2)=CC2=NCCc3c[nH]c1c32 please.
49 L/h/kg
